Reported surviving fraction is given for each of the following compounds.
System: E21 (patient-derived glioblastoma stem cells of mesenchymal subtype)
Test: surviving fraction (nuclei count normalised to DMSO); higher = more cells surviving (less toxic);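 note: nuclei counted by high-content imaging of Hoechst-stained cells in laminin-coated 384-well plates, relative to 0.1% DMSO vehicle wells, with staurosporine as cell-death control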
Conditions: 1000 nM; exposure time: 72 h
Counter-ions that a name gives are not always drawn.
EXPERIMENTAL_READOUT: surviving fraction

• CN(C(=O)CN(CCO)CC(=O)N(C)C(C)(C)Cc1ccccc1)C(C)(C)Cc1ccccc1 = 0.969
• CCn1cc(-c2ccnc3[nH]c(-c4cccc(CN(C)C)c4)cc23)c(-c2ccc(NC(=O)N(C)C)cc2)n1 = 0.432
• COc1cc2nc(N3CCN(C(=O)c4ccco4)CC3)nc(N)c2cc1OC [Prazosin hydrochloride] = 0.938
• CCN1CCN(C(=O)Cc2ccc(Nc3ncc(F)c(Nc4ccc(C(=O)Nc5ccccc5Cl)cc4)n3)cc2)CC1 = 0.369
• CC(=O)CC(c1ccc([N+](=O)[O-])cc1)c1c(O)c2ccccc2oc1=O (stereo not given) = 0.954
• COc1ccc2[nH]c([S+]([O-])Cc3ncc(C)c(OC)c3C)nc2c1 (stereo not given) = 0.956
• O=[N+]([O-])c1ccc2c(c1)S(=O)(=O)C=C2 = 0.0242
• COc1cccc2c1C(=O)c1c(O)c3c(c(O)c1C2=O)C[C@@](O)(C(C)=O)C[C@@H]3O[C@H]1C[C@H](N)[C@H](O)[C@H](C)O1 [Daunorubicin hydrochloride] = 0.0632
• Nc1ccn([C@H]2CC[C@@H](CO)O2)c(=O)n1 = 0.987
• COC(=O)Nc1nc2cc(C(=O)c3cccs3)ccc2[nH]1 = 0.0883
• Cc1ccc2c(c1)C1(CCN(CCc3nc(-c4ccccc4)oc3C)CC1)OC(=O)N2 = 0.923
• CC(=O)O[C@@]12CO[C@@H]1C[C@H](O)[C@@]1(C)C(=O)[C@H](O)C3=C(C)[C@@H](OC(=O)[C@H](O)[C@@H](NC(=O)OC(C)(C)C)c4ccccc4)C[C@@](O)([C@@H](OC(=O)c4ccccc4)[C@H]21)C3(C)C = 0.366
• Clc1ccc(COC(Cn2ccnc2)c2ccc(Cl)cc2Cl)c(Cl)c1 (stereo not given) = 0.955
• CC(C)C[C@H](NC(=O)[C@H](Cc1ccccc1)NC(=O)c1cnccn1)B(O)O = 0.00198
• C[C@H]1O[C@@H](O[C@H]2[C@@H](O)C[C@H](O[C@H]3[C@@H](O)C[C@H](O[C@H]4CC[C@@]5(C)[C@H](CC[C@@H]6[C@@H]5C[C@@H](O)[C@]5(C)[C@@H](C7=CC(=O)OC7)CC[C@]65O)C4)O[C@@H]3C)O[C@@H]2C)C[C@H](O)[C@@H]1O = 0.266

====

Test system: E28 (patient-derived glioblastoma stem cells of classical subtype)
Assay: surviving fraction (nuclei count normalised to DMSO); higher = more cells surviving (less toxic)
Details: 111.1 nM; exposure time: 72 h
Where a name gives a salt, the structure may show the parent alone.
EXPERIMENTAL_READOUT: surviving fraction

- Cn1nnc2c(C(N)=O)ncn2c1=O [Temozolomide]: 1.02
- Cn1ncnc1[C@H]1c2n[nH]c(=O)c3cc(F)cc(c23)N[C@@H]1c1ccc(F)cc1 [Talazoparib]: 0.418
- C[C@H]1Oc2cc(cnc2N)-c2c(nn(C)c2C#N)CN(C)C(=O)c2ccc(F)cc21 [Lorlatinib]: 0.843
- NC(=O)c1ccccc1 [Benzamide]: 1.31
- O=C(/C=C/c1cccnc1)NCCCCC1CCN(C(=O)c2ccccc2)CC1 [Daporinad]: 0.415
- Oc1c(Cl)cc(Cl)c(Cl)c1Cc1c(O)c(Cl)cc(Cl)c1Cl [Hexachlorophene]: 0.884
- CC(C)C[C@H]1C(=O)N2CCC[C@H]2[C@]2(O)O[C@](NC(=O)[C@@H]3C=C4c5cccc6[nH]c(Br)c(c56)C[C@H]4N(C)C3)(C(C)C)C(=O)N12 [Bromocryptine mesylate]: 1.12
- COc1cc2c(NC3CCN(C(C)C)CC3)nc(C3CCCCC3)nc2cc1OCCCN1CCCC1 [UNC0638]: 1.01

====

System: E31 (patient-derived glioblastoma stem cells of proneural subtype)
Assay: surviving fraction (nuclei count normalised to DMSO); higher = more cells surviving (less toxic)
Details: 4.1 nM; exposure time: 72 h
Counter-ions that a name gives are not always drawn.
EXPERIMENTAL_READOUT: surviving fraction

- Nc1nc(Cl)nc2c1ncn2[C@@H]1O[C@H](CO)[C@@H](O)[C@@H]1F: 0.754
- C[C@@H]1CN([C@H]2CC[C@](C#N)(c3ccc(F)cc3)CC2)CC[C@]1(C(=O)O)c1ccccc1 [Levocabastine hydrochloride]: 1.11
- CC(C)N1CCN(c2ccc(OCC3COC(Cn4cncn4)(c4ccc(Cl)cc4Cl)O3)cc2)CC1 (stereo not given): 1.04
- COc1c(N2CCNC(C)C2)c(F)cc2c(=O)c(C(=O)O)cn(C3CC3)c12 (stereo not given): 1.03
- O=C(CCBr)N1CCN(C(=O)CCBr)CC1: 0.99
- CCC1=C[C@@H]2CN(C1)Cc1c([nH]c3ccccc13)[C@@](C(=O)OC)(c1cc3c(cc1OC)N(C)[C@H]1[C@@](O)(C(=O)OC)[C@H](OC(C)=O)[C@]4(CC)C=CCN5CC[C@]31[C@@H]54)C2 [Vinorelbine Tartrate]: 0.794
- OC(c1cc(C(F)(F)F)nc2c(C(F)(F)F)cccc12)C1CCCCN1 (stereo not given) [Mefloquine hydrochloride]: 1.11
- CCCSc1ccc2[nH]c(NC(=O)OC)nc2c1: 0.993
- CC[C@]1(O)C[C@@H]2CN(CCc3c([nH]c4ccccc34)[C@@](C(=O)OC)(c3cc4c(cc3OC)N(C)[C@H]3[C@@](O)(C(=O)OC)[C@H](OC(C)=O)[C@]5(CC)C=CCN6CC[C@]43[C@@H]65)C2)C1 [Vinblastine sulfate]: 0.0459
- O=C1CC[C@@H](C(=O)N2CSC[C@H]2C(=O)O)N1: 1.08

====

Test system: E57 (patient-derived glioblastoma stem cells of mesenchymal subtype)
Assay: surviving fraction (nuclei count normalised to DMSO); higher = more cells surviving (less toxic)
Conditions: 3000 nM; exposure time: 72 h
Reported surviving fraction is given for each of the following molecules.
EXPERIMENTAL_READOUT: surviving fraction

* CCOC(=O)OC(C)OC1=C(C(=O)Nc2ccccn2)N(C)S(=O)(=O)c2ccccc21 (centres undefined) | 1.08
* CN1C(=O)OC(C)(C)C1=O | 0.885
* CCC(C)n1ncn(-c2ccc(N3CCN(c4ccc(OCC5COC(Cn6cncn6)(c6ccc(Cl)cc6Cl)O5)cc4)CC3)cc2)c1=O (centres undefined) | 0.558
* CC(=O)CC(c1ccc([N+](=O)[O-])cc1)c1c(O)c2ccccc2oc1=O (centres undefined) | 1.02

====

System: FT3469 (normal neural stem cell line)
Test: surviving fraction (nuclei count normalised to DMSO); higher = more cells surviving (less toxic)
Conditions: 333.3 nM; exposure time: 72 h
Structures can show the parent of a compound that is named as a salt.
Reported surviving fraction is given for each of the following compounds.
EXPERIMENTAL_READOUT: surviving fraction

* CCC(C)(C)c1ccc(CC(C)CN2C[C@@H](C)O[C@@H](C)C2)cc1 (some centres not stated) [Amorolfine hydrochloride] | 1.02
* Nc1ccn([C@H]2CC[C@@H](CO)O2)c(=O)n1 [Zalcitabine] | 1.02
* C#C[C@]1(O)CC[C@H]2[C@@H]3CCc4cc(OC5CCCC5)ccc4[C@H]3CC[C@@]21C [Quinestrol] | 1.2
* CN(C)CCN(Cc1ccc(Cl)cc1)c1ccccn1 [Chloropyramine hydrochloride] | 0.758
* N=c1ccn2c(n1)O[C@H]1[C@H](O)[C@@H](CO)O[C@H]12 [Ancitabine hydrochloride] | 0.668
* CC[N+](CC)(CC)CCOc1ccc(/C=C/c2ccccc2)cc1 [MG 624] | 1.13
* c1ccc2c(c1)[I+]c1ccccc1-2 [Diphenyleneiodonium chloride] | 0.59
* CCCSc1ccc2[nH]c(NC(=O)OC)nc2c1 [Albendazole] | 0.725
* CCCCCCC[N+](CC)(CC)CCCCc1ccc(Cl)cc1 [Clofilium tosylate] | 1.13
* Cc1cc(C)c(CN2CCc3c(Cl)cc(-c4c(C)noc4C)c(Cl)c3C2=O)c(=O)[nH]1 | 0.977
* CCn1cc(C(=O)O)c(=O)c2cc(F)c(N3CCNCC3)nc21 [Enoxacin] | 1.06
* Cc1ccc2c(c1)C1(CCN(CCc3nc(-c4ccccc4)oc3C)CC1)OC(=O)N2 | 1.1
* CCN1CCN(C(=O)Cc2ccc(Nc3ncc(F)c(Nc4ccc(C(=O)Nc5ccccc5Cl)cc4)n3)cc2)CC1 [Aurora-A Inhibitor I] | 1.04
* C=C(C)[C@H]1Cc2c(ccc3c2O[C@@H]2COc4cc(OC)c(OC)cc4[C@@H]2C3=O)O1 [Rotenone] | 0.897
* CN1C(=O)[C@@]23C[C@]4([C@]56C[C@@]78SS[C@@](CO)(C(=O)N7[C@H]5Nc5ccccc56)N(C)C8=O)c5ccccc5N[C@@H]4N2C(=O)[C@]1(CO)SS3 [Chaetocin] | 0.00806
* CC(C)C[C@H]1C(=O)N2CCC[C@H]2[C@]2(O)O[C@](NC(=O)[C@@H]3C=C4c5cccc6[nH]c(Br)c(c56)C[C@H]4N(C)C3)(C(C)C)C(=O)N12 [Bromocryptine mesylate] | 0.984
* CN1C(=O)OC(C)(C)C1=O [Trimethadione] | 0.983
